Reported normalized growth values for the following compounds.
# protocol.text: chemical genetic growth profiling, strain panel (AID 1159580);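 further: tested at 20 µM; growth read once vehicle control cultures reached saturation at 30 °C; 1 = growth at the plate median or of vehicle wells; lower values mean less growth of the strain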
# cond: S. cerevisiae deletion strains, growth OD, locus YER016W, strain bim1, active compounds read low
Among all 5,500 compounds or so, about 2,000 (36%) were called active. Inconclusive results (about 18%) are left out. This is one part of the list.
// return a plain number; no unit text

Example results:
{"compound": "Nc1ccc(S(=O)(=O)NC(=O)c2ccccc2)cc1", "readout.kind": "normalized growth", "readout.number": 0.974}
{"compound": "CC(=O)O[C@@H]1CC2C(C)(C)[C@H](O)C=C[C@]2(C)C2CC[C@]3(C)C(=CC(=O)O[C@H]3c3ccoc3)[C@@]21C (some centres not stated)", "readout.kind": "normalized growth", "readout.number": 0.993}
{"compound": "CC(=O)O[C@H]1CCC2(C)C3=C(CCC2C1(C)C)[C@]1(C)CCC(C(C)CCC=C(C)C)[C@@]1(C)CC3 (some centres not stated)", "readout.kind": "normalized growth", "readout.number": 0.995}

// moving on: another record for normalized growth
normalized growth reading for CC(C)=CCc1c2c(c3occ(-c4ccc(O)c(O)c4)c(=O)c3c1O)C=CC(C)(C)O2 : 0.989

###

Reported normalized growth values for the following compounds.
# protocol.text: chemical genetic growth profiling, strain panel (AID 1159580);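 further: tested at 20 µM; growth read once vehicle control cultures reached saturation at 30 °C; 1 = growth at the plate median or of vehicle wells; lower values mean less growth of the strain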
# cond: S. cerevisiae deletion strains, growth OD, locus YDL074C, strain BRE1, active compounds read low
About 2,000 (36%) of roughly 5,500 compounds were called active. Roughly 18% stayed inconclusive and do not appear here. The list shows a part of the results.
// return a plain number; no unit text

Example results:
{"compound": "O=P1(N(CCCl)CCCl)NCCCO1 (stereo unspecified)", "normalized growth": 1.03}
{"compound": "C/C1=C\\CC(C)(C)/C=C/CC2(C)OC2CC1 (stereo unspecified)", "normalized growth": 1.01}
{"compound": "C=C(C)C1CCC(C)(O)C2CC3OC3(C)C2C1 (stereo unspecified)", "normalized growth": 0.99}

normalized growth reading for CC(C)=CC1C(C(=O)O)C1(C)C (stereo unspecified) : 1.01

###

# protocol.text: chemical genetic growth profiling, strain panel (AID 1159580);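 further: tested at 20 µM; growth read once vehicle control cultures reached saturation at 30 °C; 1 = growth at the plate median or of vehicle wells; lower values mean less growth of the strain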
# cond: S. cerevisiae deletion strains, growth OD, locus YBR229C, strain ROT2, active compounds read low
In all, about 5,500 compounds went through this assay and about 2,000 (36%) were called active. About 18% were inconclusive and are not listed. This is one part of the list.
Reported normalized growth values for the following compounds.
// return a plain number; no unit text

Example results:
{"compound": "COc1ccc([C@@H]2CC(=O)c3c(O)cc(O[C@@H]4O[C@H](CO[C@H]5O[C@@H](C)[C@H](O)[C@@H](O)[C@H]5O)[C@@H](O)[C@H](O)[C@H]4O)cc3O2)cc1O", "normalized growth": 0.993}
{"compound": "N#CCCC1(CCC#N)c2ccccc2-c2ccccc21", "normalized growth": 1.02}
{"compound": "NC(Cn1ccc(=O)c(O)c1)C(=O)O (stereo not given)", "normalized growth": 1.02}
{"compound": "N[C@@H](CCC(=O)N[C@@H](CS)C(=O)NCC(=O)O)C(=O)O", "normalized growth": 1.01}
{"compound": "NCCCCCCNS(=O)(=O)c1cccc2c(Cl)cccc12", "normalized growth": 0.982}
{"compound": "CC(=O)N[C@@H](Cc1c[nH]c2ccccc12)C(N)=O", "normalized growth": 0.965}

normalized growth reading for NS(=O)(=O)c1cc2c(cc1Cl)NC(CSCc1ccccc1)=NS2(=O)=O : 0.986

normalized growth reading for O=C(O)CCCNCc1cccc2ccccc12 : 1.01

normalized growth reading for N/C(Cc1cccc2ccccc12)=N/O : 1.02

normalized growth reading for Cn1ncc(C(=O)O/N=C(/N)c2cc(C(F)(F)F)cc(C(F)(F)F)c2)c1-n1cccc1 : 1.01
